tested on: IGROV1 ovarian; assay: NCI tumour cell line growth inhibition, 48 h
property_measured: TGI

CCc1cccc(C(C)(C)C)c1NC(=S)N/C=C(/C#N)C(N)=O    > 100 µM
C=C1C(=O)O[C@H]2[C@H]1CC/C(CNC(=O)/C=C/c1cc(OC)c(OC)c(OC)c1)=C\CC[C@@]1(C)O[C@@H]21    13.9 µM
NC(=O)Nc1ccc(S(=O)(=O)Nc2ccc(S(N)(=O)=O)cc2)cc1    > 100 µM
O=c1c2ccccc2nc(-c2cc3c(cc2Cl)Sc2nccn2S3(=O)=O)n1-c1ccccc1    > 100 µM
COC(=O)C1CC23CCCN4CCC5(c6ccccc6N(C=O)C15CC2)C43 (stereo not drawn)    > 100 µM

# next compound below
Challenge: Give the value of TGI reported for the following: `Clc1nc(Cl)c2ncn(CC3(Cn4cnc5c(Cl)nc(Cl)nc54)COC3)c2n1`
Response given: 0.405 µM

* * *

# TGI annotations
test system: SK-MEL-2 melanoma; assay: NCI tumour cell line growth inhibition, 48 h

Illustrative cases are given below, each with its answer.
O=[N+]([O-])C(=C(Nc1ccccc1)Nc1ccccc1)/C(Cl)=C(\Cl)[N+](=O)[O-]    31.8 µM
CN1CCN(C(=S)N(C(=O)c2ccc(Cl)cc2)c2ccccc2)CC1    > 100 µM
O=c1c2ccccc2nc(-c2cc3c(cc2Cl)Sc2nccn2S3(=O)=O)n1-c1ccccc1    43.5 µM
CCOC(=O)NC(Nc1ncccn1)(C(=O)OCC)C(F)(F)F (stereo not drawn)    > 100 µM
Oc1c(-c2nnc(-c3ccccc3Cl)o2)sc2nnc(-c3ccccc3)c(-c3ccccc3)c12    15.7 µM
Cc1cc(C)n(-c2nsc3ccccc23)n1    > 100 µM
C=CCOc1cc(NC(=S)c2ccoc2C)ccc1OC    > 100 µM
CCc1cccc(C(C)(C)C)c1NC(=S)N/C=C(/C#N)C(N)=O    > 100 µM

Challenge: In one line, give reported TGI of the entry COc1ccc(C23C(=O)c4ccccc4N2O[C@H]2C(=O)N(c4ccccc4)C(=O)[C@H]23)cc1 (stereo partly drawn) .
Response given: > 100 µM

Challenge: Check the records and state TGI for `COc1ccc(-c2nn(-c3cccc(Cl)c3)cc2-c2cc(-c3cccs3)[nH]c(=S)n2)cc1`
Response given: 6.9 µM

Challenge: Check the records and state TGI for `O=C(O)CCCSC(=O)Nc1ccc(N=Nc2ccccc2)cc1`
Response given: > 100 µM

Challenge: Specify TGI for `O=C(c1ccccc1)c1ccccc1-c1ccccc1` and stop.
Response given: 9.48 µM

Challenge: Look up and report measured TGI for this entry: O=C(O)C1=C(O)C(C(=O)O)C23CCCCCCCCCCC12C(C(=O)O)C(O)=C3C(=O)O (stereo not drawn)
Response given: > 100 µM

Challenge: # return recorded TGI for input CC(C)(C)[Si](C)(C)OCC1OC(n2cnc3c(N)ncnc32)CC1O (stereo not drawn)
Response given: > 100 µM

Challenge: Tell me measured TGI for `C=C1C(=O)O[C@H]2[C@H]1CC/C(CNC(=O)/C=C/c1cc(OC)c(OC)c(OC)c1)=C\CC[C@@]1(C)O[C@@H]21` please.
Response given: 7.18 µM

Challenge: Annotate the compound `O=[N+]([O-])c1c(F)c(F)c2c(c1F)Nc1ccccc1S2` with its measured TGI.
Response given: 4.75 µM

* * *

Property: TGI; scope: individual compounds
system: SK-OV-3 ovarian; test: NCI tumour cell line growth inhibition, 48 h

These recorded examples may help you get a feel for the data.
Cc1ccc(S(=O)(=O)N2CCC(=O)c3cc(Br)ccc32)cc1    63.2 µM
CN1CCC2(CC1)ONC1=NCCN12    > 100 µM
c1cncc(C2(c3cc4ccccc4[nH]3)COCO2)c1 (stereo not given)    > 100 µM
O=C1N=C(SC(SC2=NC(=O)C3(NN2)c2ccccc2-c2ccccc23)=C(SC2=NC(=O)C3(NN2)c2ccccc2-c2ccccc23)SC2=NC(=O)C3(NN2)c2ccccc2-c2ccccc23)NNC12c1ccccc1-c1ccccc12    > 10 µM

We now examine a further compound.
Challenge: Specify measured TGI for `COc1ccc(CCCCl)c(C2=NCCc3cc(OC)c(OC)cc32)c1` .
Response given: > 100 µM

* * *

# TGI per record follows
tested on: OVCAR-4 ovarian; assay: NCI tumour cell line growth inhibition, 48 h
Where a SMILES comes first, the peptide text is derived from it. [ ]: non-standard residue; d: D form. pGlu = O=C1CC[CH](C(=O)O)N1

O=C1NC2=C(CCCC/C2=N\O)C12CCCCC2    > 100 µM
COc1ccc(C23C(=O)c4ccccc4N2O[C@H]2C(=O)N(c4ccccc4)C(=O)[C@H]23)cc1 (stereo not given in full)    > 100 µM
O=C1Nc2ccccc2C1=Nc1cccc2ncccc12    > 100 µM
Cc1ccc(NCC(=O)N2CC(=O)Nc3ccccc32)c(C)c1    > 100 µM

Challenge: Please look at this compound and report its TGI: `CN(CCNC(=O)c1nn(-c2ccccc2)c2c1Cc1ccccc1-2)CCNC(=O)c1nn(-c2ccccc2)c2c1Cc1ccccc1-2`
Response given: 4.48 µM

Challenge: Let me know recorded TGI for `C[C@]12CC[C@@H]3c4ccc(O)cc4CC[C@H]3[C@@H]1CC[C@@H]2OP(=O)(O)O` , thanks.
Response given: > 100 µM

Challenge: Kindly indicate its recorded TGI. Item: CCNC(=O)C1CCCN1C(=O)C(CCCN=C(N)N)NC(=O)C(CC(C)C)NC(=O)C(CC(C)C)NC(=O)C(Cc1ccc(O)cc1)NC(=O)C(CO)NC(=O)C(Cc1c[nH]c2ccccc12)NC(=O)C(Cc1cnc[nH]1)NC(=O)C1CCC(=O)N1 (stereo not given) ([pGlu]HWSYLLRP-NHEt; configuration not given here)
Response given: > 100 µM

Challenge: Return TGI (reported value) for this compound: CC1OC(OC2C(O)COC(OC3C(C)OC(OC4C(OC(=O)[C@]56CCC(C)(C)C[C@@H]5C5=CCC7[C@@]8(C)C[C@H](O)[C@H](OC9OC(CO)C(O)C(OC%10OC(CO)C(O)C(O)C%10O)C9O)[C@@](C)(CO)[C@@H]8CC[C@@]7(C)[C@]5(C)CC6)OCC(O)C4O)C(O)C3OC3OCC(O)(CO)C3O)C2O)C(O)C(O)C1O (stereo not given in full)
Response given: 19.5 µM

Challenge: Give the reported value of TGI for this record: `C=C(C)[C@@H]1CC[C@]2(C)CC[C@]3(C)[C@H](CC[C@@H]4[C@@]5(C)CC[C@H](O)C(C)(C)[C@@H]5CC[C@]43C)[C@@H]12`
Response given: > 100 µM

Challenge: State, in one line, measured TGI of `CN(/N=C/c1cccc2cccnc12)c1ccc([N+](=O)[O-])cc1[N+](=O)[O-]`
Response given: > 70.3 µM

Challenge: Identify TGI associated with the compound `O=c1[nH]nc(-c2ccccc2)n1Nc1ccccc1`
Response given: > 100 µM

Challenge: Item O=C1NCC(CSc2nc3cc(C4CCCc5c4[nH]c4ccccc54)ccc3o2)N1 (stereo not given) : provide TGI
Response given: > 100 µM

Challenge: For `COc1cc(/C=C\c2cc(OC)c(OC)c(OC)c2)cc(NC(=O)/C=C/c2cc(OC)c(OC)c(OC)c2)c1OC` , write its TGI.
Response given: > 100 µM

Challenge: Write down TGI measured for item `CCCCON(OC(=O)c1ccc2ccccc2c1)C(=O)c1ccccc1`
Response given: > 100 µM

Challenge: Supply reported TGI belonging to this compound: C=C(CCOC)CCC1CCCCC(=C)[C@H]1OC(C)=O (stereo not given in full)
Response given: > 100 µM

* * *

TGI for assorted molecules
tested on: OVCAR-5 ovarian; experiment: NCI tumour cell line growth inhibition, 48 h

Cc1cccc(/C=C/c2c(C(=O)/C=C/c3ccccc3)c(C)nc3ccccc23)c1    3.56 µM
O=c1cc(-c2ccccc2)c2ccccc2[nH]1    > 100 µM
COc1ccc(C23C(=O)c4ccccc4N2O[C@H]2C(=O)N(c4ccccc4)C(=O)[C@H]23)cc1 (stereo not given in full)    > 100 µM
CCOC(=O)c1c(C)nc2c(c1N)CC(=O)N2Cc1ccc(OC)cc1    > 100 µM

Next, consider the following molecule.
Challenge: Identify measured TGI obtained with OVCAR-5 ovarian for `CCOC(=O)N1CCN(/[N+]([O-])=N/Oc2ccc([N+](=O)[O-])cc2[N+](=O)[O-])CC1` .
Response given: 9.09 µM

* * *

system: OVCAR-3 ovarian; assay: NCI tumour cell line growth inhibition, 48 h
property_measured: TGI

Known results for compounds:
COc1ccc(/C=C2\CCC(CNc3ccc(S(N)(=O)=O)cc3)C2=O)cc1 (stereo not given)    22.7 µM
CCN1C(=O)N(CC)C2C1NN=c1s/c(=C\c3cccc(F)c3)c(=O)n12 (stereo not given)    > 100 µM
O=C1NCC(CSc2nc3cc(C4CCCc5c4[nH]c4ccccc54)ccc3o2)N1 (stereo not given)    > 100 µM
COc1cc(C2=C(c3cc(OC)c4ccccc4c3OC)C(=O)c3ccccc3C2=O)c(OC)c2ccccc12    > 100 µM
CC1(C)C2C=C(CCN3CCOCC3)CC1C2 (stereo not given)    > 100 µM
CN(C)c1ccc(/C=C/C(=O)CC(=O)/C=C/c2ccc(N(C)C)cc2)cc1    > 100 µM
C=C1C(=O)O[C@@H]2C[C@@H](C)[C@@H]3C=CC(=O)[C@@]3(C)[C@@H](O)[C@H]12    3.72 µM
O.O.[NH-]C1(C(=O)O)CCCC1.[NH-]C1(C(=O)O)CCCC1.[Ni+2]    > 100 µM

Challenge: Please indicate TGI recorded for `Cc1cc(CC(=O)NCCO)n(CCO)c(=O)c1`
Response given: > 100 µM

Challenge: Supply measured TGI of `O=C(Nc1ccc([As](=O)(O)O)cc1)Nc1cccc(Cl)c1Cl` in your reply.
Response given: > 100 µM
